Below, each of the compounds is paired with its reported %Inh value.
Tested on: GSK3A
Settings: concentration: 1 μM, replicates: in singlicate; n = 1;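 also: KINOMEscan kinase panel screen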
Respond with the bare value in %.

Sample records with %Inh:
O=c1cc(N2CCOCC2)nc2n(Cc3ccc(F)c(Cl)c3)ccn12 [GSK2297099] has a reported %Inh of 0

Reported %Inh for Nc1n[nH]c2ncc(-c3ccccc3)cc12 [SB-517081] was 34

API: the following record is the query input.
According to the records, this compound Cc1ccccc1COc1cc(-n2cnc3cc(Cl)ccc32)sc1C(N)=O [GW813349] displays %Inh of 17

====

System: PIM1
Settings: concentration: 1 μM, replicates: in singlicate; n = 1
assay-metric: %Inh (%)
Numeric answer only, unit % assumed.

Short answer for `COc1cc2ncn(-c3cc(OCc4ccncc4Br)c(C(N)=O)s3)c2cc1OC` : %Inh was 0

So, `Cl.NS(=O)(=O)c1cccc(Nc2cc(-c3ccc(F)cc3)n[nH]2)c1` ? Its %Inh was 0

The measured %Inh associated with `Cn1c(=O)c(F)c(Nc2ccc(I)cc2F)c2c(=O)n(OC[C@H](O)CO)cnc21` reads 5

%Inh measured on `O=C(Nc1n[nH]c2nc(-c3ccccc3)c(Cl)cc12)C1CC1` = 0

Looking up `CN1C(=O)C(Nc2ccccc2)=C(c2ccccc2)C1=O` , I see its %Inh listed as 0

Sample `Nc1nc(N)c2nc(-c3ccccc3)[nH]c2n1` ; %Inh observed: 0

Continuing:
According to the records, this compound `O=C(NCCNc1ccnc(Nc2ccc(F)cc2)n1)Nc1ccc2c(c1)OCO2` displays %Inh of 21

Documented %Inh of `CCCC(=O)Nc1n[nH]c2ncc(-c3cccc4ccccc34)cc12` : 10

The compound `OCCCNc1nccc(-c2c(-c3cccc(C(F)(F)F)c3)nn3cc(C(F)(F)F)ccc23)n1` showed %Inh equal to 9

// recorded %Inh for `COc1cc2nccc(Nc3cccc(Oc4ccccc4)c3)c2cc1OC.Cl` : 0

// sample `Cc1ccc(-c2ccc3c(ccc4sc5c(c43)NC[C@@H](C)N=C5N(C)C)n2)cn1` , its %Inh was 0

====

Tested on: DCAMKL2
Construct: gene DCLK2
Settings: concentration: 1 μM, replicates: in singlicate; n = 1
In this section, each of the compounds is paired with its reported %Inh.

Recorded result, `Cc1ccc(-c2ccc3c(ccc4sc5c(c43)NC[C@@H](C)N=C5N(C)C)n2)cn1` , %Inh: 0%

%Inh measured on `COC(=O)c1c(-c2ccccc2)c2cc(Br)ccc2c(=O)n1Cc1ccc(S(C)(=O)=O)cc1` = 0%

Reported %Inh for `C[C@@H]1CC[C@H](C(=O)NC2CCCCC2)CN1c1cc(-c2ccc3c(N)n[nH]c3c2)nc(N)n1` was 24%

Next:
`CCC(=O)c1c(-c2ccccc2)c2cc(Cl)ccc2c(=O)n1Cc1cc(S(C)(=O)=O)n(CC(F)F)n1` has a reported %Inh of 0%

Please fill in: %Inh reported for `COC(=O)c1c(-c2ccccc2)c2cc(Br)ccc2c(=O)n1Cc1ccc(NC(=O)CCC(=O)O)cc1` = 0%

====

Quick reference: %Inh of the listed items.
Tested on: DDR1
Conditions: concentration: 1 μM, replicates: in singlicate; n = 1
Write your answer as a measured quantity: the number, then the unit.

Some entries whose results are on file:
Notebook: `COc1ccc(-c2cc3c(C)nc(N)nc3n([C@H]3CC[C@H](O)CC3)c2=O)cn1` , %Inh read as 0%

Consider `Cn1c(=O)c(F)c(Nc2ccc(I)cc2F)c2c(=O)n(OC[C@H](O)CO)cnc21` . Its measured %Inh is 0%

Further cases:
Noted for `FC(F)(F)c1ccc(-c2ncn(CCCN3CCOCC3)c2-c2ccncc2)cc1` : its %Inh reads 5%

Reported %Inh for `CN1C(=O)C(Nc2cc(Cl)c(O)c(Cl)c2)=C(c2ccc(Cl)cc2)C1=O` was 0%

%Inh recorded for this molecule, `Cl.c1ccc(Cn2cnc3cc(Nc4ncnc5ccccc45)ccc32)cc1` , is 5%

Form: molecule = `CCc1nc(-c2cccc(C)c2)c(-c2ccncc2)s1` ; %Inh = 30%

Noted for `Cc1ccccc1COc1cc(-n2cnc3cc(Cl)ccc32)sc1C(N)=O` : its %Inh reads 0%

The molecule `CCn1c(-c2ccoc2)nc2cnccc21` showed %Inh equal to 27%

Query `CCn1c(-c2nonc2N)nc2ccccc21` yields %Inh of 0%
